# experiment_notes: soluble on expression in E. coli; label from the status in PepcDB or PDB records

{"biopolymer_sequence": "SGKVILITGASRGIGLQLVKTVIEEDDECIVYGVARTEAGLQSLQREYGADKFVYRVLDITDRSRMEALVEEIRQKHGKLDGIVANAGMLEPVKSISQSNSEHDIKQWERLFDVNFFSIVSLVALCLPLLKSSPFVGNIVFVSSGASVKPYNGWSAYGCSKAALNHFAMDIASEEPSDKVRAVCIAPGVVDTQMQKDIRETLGPQGMTPKALERFTQLYKTSSLLDPKVPAAVLAQLVLKGIPDSLNGQYLRYNDERLGPVQG", "soluble on expression in E. coli": "soluble"}
{"biopolymer_sequence": "MSLANRIRLHIWGDYACFTRPEMKVERVSYDVITPSAARGILSAIHWKPAINWVIDKIYVLKPIRFESVRRNELGAKISESKVSGAMKRKSVADLYTVIEDDRQQRAATVLKDVAYVIEAHAVMTSKAGVDENTTKHIEMFKRRALKGQCFQQPCMGVREFPAHFALIDDNDPLPLSQLSESEFNRDLGWMLHDIDFEHGNTPHFFRAELKNGVIDVPPFYAEEVKREGHHHHHH", "soluble on expression in E. coli": "soluble"}
